Tested on: DU-145 prostate
ASSAY_PROTOCOL: NCI-60 one-dose screen, 48 h (100 = growth as untreated, 0 = no growth, -100 = all killed)
CONDITION_DESCRIPTION: 10 µM
Compounds without any hit were thinned out: in the full panel of roughly 83,000, 20% have a hit.
y means recorded growth is 90% or above; n means it is below 90%.

{"columns": ["INPUT_SMILES", "CLASSIFICATION"],
 "data": [
  ["CN1CCN(c2ccc(Nc3nc(N4CCN(S(=O)(=O)c5ccc(F)cc5)CC4)c4sccc4n3)cc2)CC1", "n"],
  ["COC1=C[C@]23CCC(=O)N2CCc2cc4c(cc2[C@@H]3[C@@H]1OC(=O)CCCC(C)C)OCO4", "n"],
  ["O=C(CSc1nnc(-c2c[nH]c3ccccc23)n1-c1ccccc1)c1ccccc1", "n"],
  ["CCCn1c(O)c(N=Nc2nc(-c3cc4ccccc4oc3=O)cs2)c2cc(Br)ccc21", "y"],
  ["COc1ccc(-c2cc(C(=O)N=Nc3c(O)[nH]c4ccccc34)c3ccccc3n2)cc1", "n"]
]}

###

Test system: MOLT-4 leukemia
ASSAY_PROTOCOL: NCI-60 one-dose screen, 48 h (100 = growth as untreated, 0 = no growth, -100 = all killed)
CONDITION_DESCRIPTION: 10 µM
About 83,000 compounds went through this panel and 20% of them were active in at least one assay; those are over-represented in the sample as a whole. Calls of active or inactive are those of the source. How the source made its calls: active means growth percent below 10; inactive means the rest.
MEASURE: growth

{"columns": ["COMPOUND", "MEASURED_VALUE"],
 "data": [
  ["COc1ccc2c(c1)N=C(C(=O)O)/C2=C/c1sc(Nc2ccc(O)cc2)nc1O", "43% (inactive)"],
  ["CCCn1c(O)c(N=Nc2nc(-c3cc4ccccc4oc3=O)cs2)c2cc(Br)ccc21", "107% (inactive)"],
  ["Nc1nnc(-c2c[nH]c3ccc(F)cc23)c(-c2c[nH]c3ncccc23)n1", "48.8% (inactive)"],
  ["CC(C)(C)c1ccc(NCc2cn(-c3ccc(C(=O)O)cc3)nc2-c2ccc(C#N)cc2)cc1", "8.13% (active)"],
  ["Nc1nc(Nc2ccccc2)nn1Cc1c(Cl)cccc1Cl", "18.6% (inactive)"],
  ["Cc1ccc(-c2ccc(SCC(=O)Nc3ccc(Cl)c(C(F)(F)F)c3)nn2)cc1", "8.91% (active)"],
  ["COc1cc2c(c(OC)c1OC)C(=O)CC(c1cccc(NC(=O)c3cccc(N)c3)c1)O2 (stereo not given)", "43.1% (inactive)"],
  ["CCCCSc1nc(Nc2ccc(/C(C)=N/NC(N)=S)cc2)c(C#N)c(-c2ccccc2)n1", "47.3% (inactive)"],
  ["COc1cnc2c(c1)C(=O)c1c-2n(CCCNC(C)C)c(=O)c2cc(OC)c(OC)cc12", "16.5% (inactive)"],
  ["Cn1c(O)c(N=Nc2nc(-c3cc4ccccc4oc3=O)cs2)c2cc(Br)ccc21", "104% (inactive)"],
  ["CN1CCO/C1=C(/NC(=O)c1ccc(Cl)cc1)[P+](c1ccccc1)(c1ccccc1)c1ccccc1", "87.9% (inactive)"],
  ["Cc1ccc(NCC(=O)Nn2c(COc3ccccc3)nc3ccccc3c2=O)cc1", "106% (inactive)"],
  ["Cc1ccc(/C=C/C(=O)c2ccc(NC(=O)CSc3nnc(-c4c[nH]c5ccccc45)n3-c3ccccc3)cc2)cc1", "68.3% (inactive)"],
  ["Cc1noc2c(Cc3ccc([N+](=O)[O-])cc3)nn(CC(=O)N/N=C/c3ccc(Br)cc3)c(=O)c12", "103% (inactive)"],
  ["CN(C)c1nc(NCCNS(=O)(=O)c2ccc(C(=O)/C=C/c3ccccc3)cc2)nc(Nc2ccc(F)cc2)n1", "8.21% (active)"],
  ["O=c1cc(-c2ccccc2)oc2cc(OCCCCNCc3ccccc3)cc(O)c12", "-0.919% (active)"],
  ["CN(C(=O)c1ccc(C(F)(F)F)cc1C(F)(F)F)c1sc2c(c1C#N)CCC(=O)C2", "36.4% (inactive)"],
  ["CO[C@H]1CSS[C@@H]1Cn1nc(-c2ccc(Oc3ccccc3)cc2)c2c(N)ncnc21", "-20.6% (active)"],
  ["CCOC(=O)CNC(=O)CN(Cc1ccccc1)C(=O)[C@@]1(C)CCC[C@]2(C)[C@H]3C[C@H]4C(C(C)C)=C[C@]3(CC[C@H]21)[C@@H]1C(=O)OC(=O)[C@@H]14", "27.8% (inactive)"],
  ["COc1ccc2nc(Cl)c(-c3cc(-c4ccccc4)nc(N)n3)cc2c1", "-18.1% (active)"],
  ["OCCCNc1oc(-c2ccccc2)nc1[P+](c1ccccc1)(c1ccccc1)c1ccccc1", "6.77% (active)"],
  ["CC1(C)[C@@H](NCO)CC[C@]2(C)[C@H]3C(=O)C=C4[C@@H]5C[C@](C)(CO)CC[C@]5(C)CC[C@@]4(C)[C@]3(C)CC[C@@H]12", "16.5% (inactive)"],
  ["Cc1cc(C)nc(NS(=O)(=O)c2ccc(N/C(N)=N/c3nccc(-c4ccccc4)n3)cc2)n1", "38.8% (inactive)"],
  ["Cc1noc2c(Cc3ccc([N+](=O)[O-])cc3)nn(CC(=O)N/N=C/c3ccc(Cl)cc3)c(=O)c12", "97.8% (inactive)"],
  ["CC(=O)OC[C@@]1(C)C2CC[C@]3(C)C(CC=C4C5CC(C)(C)CC[C@]5(C(=O)Nc5ccccc5)CC[C@]43C)[C@@]2(C)C[C@@H](OC(C)=O)[C@@H]1OC(C)=O (stereo not given in full)", "24.4% (inactive)"],
  ["N#Cc1c(NC(=O)c2ccc(C(F)(F)F)cc2C(F)(F)F)sc2c1CCC(=O)C2", "-16% (active)"],
  ["CC(=O)Nc1ccc(-n2cnc3cc(-c4ccc(O)cc4)ccc32)cc1C", "64.7% (inactive)"],
  ["O=c1[nH]c2ccccc2cc1CSc1ccc(Nc2nccc(-c3ccc(C(F)(F)F)cc3)n2)cc1", "55.6% (inactive)"],
  ["Brc1ccc(N/N=C/c2c[nH]c3ccccc23)nc1", "18% (inactive)"],
  ["O=C(N/C(=C1/OCCN1Cc1ccccc1)[P+](c1ccccc1)(c1ccccc1)c1ccccc1)c1ccccc1", "20.6% (inactive)"]
]}
